Overview of reported IC50 across a group of compounds:
# System: MYB mRNA
# testProtocol: RT-qPCR splicing assay, MYB canonical junction (CJ) and alternative junction (AJ) mRNA
# Assay type: cell-based, human
# details: Homo sapiens; Table 5 panel; canonical junction qPCR; compound concentration having 50% response in CJ decrease; read-out: MYB IC50 (decrease in CJ mRNA levels)
measuredEndpoint: IC50

1) Cc1cn2nc(-c3cc(O)c4c(=O)n(C5CCNCC5)ncc4c3)cc(C)c2n1 ... < 100 nM
2) Cc1cn2cc(-c3cc(F)c4c(=O)n([C@H]5CCN[C@@H](C)C5)cnc4c3)cc(F)c2n1 (relative stereo) ... < 100 nM
3) Cc1nc2c(F)cc(-c3ccc4c(c3)CCN(C3CCNCC3)C4=O)cc2s1 ... 1000 to 10000 nM
4) Cc1cn2nc(-c3ccc4c(=O)n([C@H]5CCNC6(CC6)C5)cnc4c3)cc(C)c2n1 ... 100 to 1000 nM
5) Cc1cn2nc(-c3ccc4c(=O)n(C5CCNCC5)ccc4c3)cc(CC(=O)O)c2n1 ... 100 to 1000 nM
6) CN(c1ccc2c(=O)n(-c3ccc4nn(C)cc4c3)cnc2c1)C1CCNCC1 ... > 10000 nM
7) Cc1cc(-c2ccc3c(=O)n(C4CCNCC4)cnc3c2)cc2cn(C)nc12 ... 100 to 1000 nM
